system: A. terreus 49; experiment: Minimum inhibitory concentration, YAG medium; type: cell-based, Aspergillus terreus; conditions: banded MIC grade
Hi there, I'd appreciate the recorded MIC grade, A. TERREUS 49, YAG media for every entry that follows.

Any idea what its MIC grade, A. TERREUS 49, YAG media is? The compound is `NC1=NN=C(CCCCOCc2cccc(Cl)c2)CS1`
4 (4: <0.2 mg/L)

Tell me the measured MIC grade, A. TERREUS 49, YAG media of `NC1=NN=C(CCOCCCc2ccccc2)CS1` , please.
4 (4: <0.2 mg/L)

May I ask what MIC grade, A. TERREUS 49, YAG media has been recorded for `NC1=NN=C(CCCCc2cc3ccccc3o2)CS1` ?
3 (3: 0.2-1 mg/L)

Query: MIC grade, A. TERREUS 49, YAG media; subject: `NC1=NN=C(CCCCCC(=O)O)CS1`
2 (2: 1-5 mg/L)

Entry under review: `CCC(=O)OCC1=NN=C(N)SC1` . Reported MIC grade, A. TERREUS 49, YAG media?
3 (3: 0.2-1 mg/L)

Quick check: MIC grade, A. TERREUS 49, YAG media of `Cc1cccc(C2=NN=C(N)SC2)c1` ?
2 (2: 1-5 mg/L)

Consider the compound `NC1=NN=C(c2ccc(Cl)cc2)CS1` and give its measured MIC grade, A. TERREUS 49, YAG media.
3 (3: 0.2-1 mg/L)

Name the reported MIC grade, A. TERREUS 49, YAG media value associated with the compound `NC1=NN=C(c2ccccc2)CS1`
3 (3: 0.2-1 mg/L)

Suppose we examine the compound `NC1=NN=C(CCCCOCCCc2ccc(F)cc2F)CS1` ; what MIC grade, A. TERREUS 49, YAG media value has been reported?
3 (3: 0.2-1 mg/L)

Look at this compound and give its reported MIC grade, A. TERREUS 49, YAG media. `CCOC(=O)c1cccc(C2=NN=C(N)SC2)c1`
1 (1: ≥5 mg/L)

GET /values?readout=MIC grade, A. TERREUS 49, YAG media&item= `Cc1cc(C)cc(C2=NN=C(N)SC2)c1`
1 (1: ≥5 mg/L)

For the compound `NC1=NN=C(CCCCOCc2ccccc2C2CC2)CS1` , what MIC grade, A. TERREUS 49, YAG media is on record?
2 (2: 1-5 mg/L)

# query: MIC grade, A. TERREUS 49, YAG media of entry `NC1=NN=C(CCCCOCc2ccccc2CCc2ccccc2)CS1`
1 (1: ≥5 mg/L)

Reported MIC grade, A. TERREUS 49, YAG media, compound `CCCCCOc1ccc(CCC2=NN=C(N)SC2)cc1` : ____
3 (3: 0.2-1 mg/L)

// MIC grade, A. TERREUS 49, YAG media lookup, key: `NC1=NN=C(CCCCOCc2ccc(Br)cc2)CS1`
4 (4: <0.2 mg/L)

I am curious: what MIC grade, A. TERREUS 49, YAG media value has been reported for `NC1=NN=C(CCCCOCc2cccc(C3CC3)c2)CS1` ?
3 (3: 0.2-1 mg/L)

Please look up its MIC grade, A. TERREUS 49, YAG media: `NC1=NN=C(CCCCCOCc2ccccc2)CS1`
4 (4: <0.2 mg/L)
